# Test system: 596521-263-R-J1-PDC complex spheroids, viability % of control
# method_notes: Anticancer human tumor 596521-263-R-J1-PDC patient-derived soft tissue sarcoma cell line growth inhibition [GQUAD]
# applied_conditions: second compound 1 µM; first compound 1 µM; stronger effect = lower value
Rule for this label: label 1 means viability, T/C is less than 70%; label 0 means viability, T/C is at least 70%.

Worked cases, answers included:
compound="Cc1cccc(N(C)C(=O)C2C(O)CCN2c2nc(C)cc(C(F)(F)F)c2C#N)c1 (configuration not stated) + Cc1[nH]c2ccc(F)cc2c1-c1nc2c3cccnc3c3ncccc3c2[nH]1" qualitative_label="label 0"
compound="COc1cccc2c1C(=O)c1c(O)c3c(c(O)c1C2=O)CC(O)(C(=O)CO)CC3OC1CC(N)C(O)C(C)O1 (configuration not stated) + Cc1[nH]c2ccc(F)cc2c1-c1nc2c3cccnc3c3ncccc3c2[nH]1" qualitative_label="label 1"
compound="C=CC(=O)N1CCN(c2nc(=O)n(-c3c(C)ccnc3C(C)C)c3nc(-c4c(O)cccc4F)c(F)cc23)C(C)C1 (configuration not stated) + CN(C)c1ccc(Nc2c3ccc(NC(=O)CCN4CCCC4)cc3nc3cc(NC(=O)CCN4CCCC4)ccc23)cc1" qualitative_label="label 0"
compound="CC1COCCN1c1cc(C2(S(C)(=N)=O)CC2)nc(-c2ccnc3[nH]ccc23)n1 (configuration not stated) + Cc1[nH]c2ccc(F)cc2c1-c1nc2c3cccnc3c3ncccc3c2[nH]1" qualitative_label="label 0"
compound="CC1COCCN1c1cc(-c2ccnn2C)c2ccnc(-c3ccn[nH]3)c2n1 (configuration not stated) + Cc1[nH]c2ccc(F)cc2c1-c1nc2c3cccnc3c3ncccc3c2[nH]1" qualitative_label="label 1"

Lab log: compare recorded viability, T/C with 70%; is it strictly lower for Cc1cccc(N(C)C(=O)C2C(O)CCN2c2nc(C)cc(C(F)(F)F)c2C#N)c1 (configuration not stated) + CN(C)c1ccc(Nc2c3ccc(NC(=O)CCN4CCCC4)cc3nc3cc(NC(=O)CCN4CCCC4)ccc23)cc1 ?
label 0

Is viability, T/C strictly under 70% for the entry C#Cc1c(F)ccc2cc(O)cc(-c3ncc4c(N5CC6CCC(C5)N6)nc(OCC56CCCN5CC(F)C6)nc4c3F)c12 (configuration not stated) + Cc1[nH]c2ccc(F)cc2c1-c1nc2c3cccnc3c3ncccc3c2[nH]1 ?
label 1

is_below(viability, T/C, 70%) for COc1ccc([C@@H](O)c2cc(-c3ncnc4cc(N5CCOCC5)ccc34)c(F)cc2Cl)nn1 + CN(C)c1ccc(Nc2c3ccc(NC(=O)CCN4CCCC4)cc3nc3cc(NC(=O)CCN4CCCC4)ccc23)cc1 ?
label 0

Is viability, T/C of O=C(NO)c1cnc(N2CCN(S(=O)(=O)c3ccc4ccccc4c3)CC2)nc1 + CN(C)c1ccc(Nc2c3ccc(NC(=O)CCN4CCCC4)cc3nc3cc(NC(=O)CCN4CCCC4)ccc23)cc1 strictly below 70%?
label 1

Lab note: confirm whether the reported viability, T/C for this compound is below 70%, equality not counting. compound: C#Cc1c(F)ccc2cc(O)cc(-c3ncc4c(N5CC6CCC(C5)N6)nc(OCC56CCCN5CC(F)C6)nc4c3F)c12 (configuration not stated) + Cc1cnc(CNC(=O)c2c(=O)c3ccc(N4CCCN(C)CC4)nc3n3c2sc2ccccc23)cn1
label 1

viability, T/C strictly < 70% for this compound? COc1ncnc(C2CC2)c1-c1ncc2cnn(Cc3ccc(-c4nc(C(F)(F)F)cn4C(C)C)cc3)c2n1 + CN(C)c1ccc(Nc2c3ccc(NC(=O)CCN4CCCC4)cc3nc3cc(NC(=O)CCN4CCCC4)ccc23)cc1
label 0

---

Reported viability, T/C is given for each of the following compounds.
# Test system: 596521-263-R-J1-PDC complex spheroids, viability % of control
# method_notes: Anticancer human tumor 596521-263-R-J1-PDC cell line growth inhibition [GQUAD];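 further: spheroids exposed to drugs for 7 days before viability reading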;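 on viability, T/C: 100% = DMSO vehicle control viability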
# applied_conditions: second compound 0.1 µM; first compound 0.00316 µM; stronger effect = lower value
Return type: number; implicit unit %.

compound="CC[C@@]1(O)C(=O)OCc2c1cc1n(c2=O)Cc2cc3c(CN(C)C)c(O)ccc3nc2-1 + CN(C)c1ccc(Nc2c3ccc(NC(=O)CCN4CCCC4)cc3nc3cc(NC(=O)CCN4CCCC4)ccc23)cc1" attribute_measured="viability, T/C" numeric_result=105
compound="CCc1c2c(nc3ccc(O)cc13)-c1cc3c(c(=O)n1C2)COC(=O)[C@]3(O)CC + Cc1cnc(CNC(=O)c2c(=O)c3ccc(N4CCCN(C)CC4)nc3n3c2sc2ccccc23)cn1" attribute_measured="viability, T/C" numeric_result=56.8
compound="Cc1[nH]c2ccccc2c1CCNCc1ccc(/C=C/C(=O)NO)cc1 + Cc1[nH]c2ccc(F)cc2c1-c1nc2c3cccnc3c3ncccc3c2[nH]1" attribute_measured="viability, T/C" numeric_result=90.6
compound="Cn1ncnc1[C@H]1c2n[nH]c(=O)c3cc(F)cc(c23)N[C@@H]1c1ccc(F)cc1 + Cc1[nH]c2ccc(F)cc2c1-c1nc2c3cccnc3c3ncccc3c2[nH]1" attribute_measured="viability, T/C" numeric_result=98.9
compound="Cn1ncnc1[C@H]1c2n[nH]c(=O)c3cc(F)cc(c23)N[C@@H]1c1ccc(F)cc1 + Cc1cnc(CNC(=O)c2c(=O)c3ccc(N4CCCN(C)CC4)nc3n3c2sc2ccccc23)cn1" attribute_measured="viability, T/C" numeric_result=84

Proceed to the following item.
Dear colleague, I am looking for the recorded viability, T/C of the following compound: CC[C@@]1(O)C(=O)OCc2c1cc1n(c2=O)Cc2cc3c(CN(C)C)c(O)ccc3nc2-1 + Cc1[nH]c2ccc(F)cc2c1-c1nc2c3cccnc3c3ncccc3c2[nH]1
99.1

---

# key: entry, value: IC50
# Tested on: 596521-263-R-J1-PDC complex spheroids, viability % of control
# method_notes: Anticancer human tumor 596521-263-R-J1-PDC cell line growth inhibition [GQUAD];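 further: spheroids exposed to drugs for 7 days before viability reading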
# applied_conditions: curve of first compound; second compound 0.316 µM

// solved cases for IC50 follow
compound="CC(C)n1c(=O)n(C)c2cnc3cc(F)c(-c4ccc(OCCCN5CCCCC5)nc4)cc3c21 + Cc1cnc(CNC(=O)c2c(=O)c3ccc(N4CCCN(C)CC4)nc3n3c2sc2ccccc23)cn1" target="596521-263-R-J1-PDC complex spheroids, viability % of control" result="> 10 µM"
compound="CC[C@@]1(O)C(=O)OCc2c1cc1n(c2=O)Cc2cc3c(CN(C)C)c(O)ccc3nc2-1 + Cc1cnc(CNC(=O)c2c(=O)c3ccc(N4CCCN(C)CC4)nc3n3c2sc2ccccc23)cn1" target="596521-263-R-J1-PDC complex spheroids, viability % of control" result="> 0.316 µM"
compound="O=C(c1cc(Cc2n[nH]c(=O)c3ccccc23)ccc1F)N1CCN(C(=O)C2CC2)CC1 + Cc1cnc(CNC(=O)c2c(=O)c3ccc(N4CCCN(C)CC4)nc3n3c2sc2ccccc23)cn1" target="596521-263-R-J1-PDC complex spheroids, viability % of control" result="> 10 µM"
compound="C#Cc1c(F)ccc2cc(O)cc(-c3ncc4c(N5CC6CCC(C5)N6)nc(OCC56CCCN5CC(F)C6)nc4c3F)c12 (stereo unspecified) + Cc1cnc(CNC(=O)c2c(=O)c3ccc(N4CCCN(C)CC4)nc3n3c2sc2ccccc23)cn1" target="596521-263-R-J1-PDC complex spheroids, viability % of control" result="> 10 µM"

Lab note: need IC50 with 596521-263-R-J1-PDC complex spheroids, viability % of control for entry C#Cc1c(F)ccc2cc(O)cc(-c3ncc4c(N5CC6CCC(C5)N6)nc(OCC56CCCN5CC(F)C6)nc4c3F)c12 (stereo unspecified) + CN(C)c1ccc(Nc2c3ccc(NC(=O)CCN4CCCC4)cc3nc3cc(NC(=O)CCN4CCCC4)ccc23)cc1 , please look it up.
> 10 µM

Reported IC50 for 596521-263-R-J1-PDC complex spheroids, viability % of control, given O=c1[nH]cc(F)c(=O)[nH]1 + Cc1cnc(CNC(=O)c2c(=O)c3ccc(N4CCCN(C)CC4)nc3n3c2sc2ccccc23)cn1 ?
> 10 µM

# value lookup — system 596521-263-R-J1-PDC complex spheroids, viability % of control, readout IC50, item O=c1[nH]cc(F)c(=O)[nH]1 + Cc1[nH]c2ccc(F)cc2c1-c1nc2c3cccnc3c3ncccc3c2[nH]1
> 10 µM

Find the measured IC50: item O=C(c1cc(Cc2n[nH]c(=O)c3ccccc23)ccc1F)N1CCN(C(=O)C2CC2)CC1 + Cc1[nH]c2ccc(F)cc2c1-c1nc2c3cccnc3c3ncccc3c2[nH]1 , target or system 596521-263-R-J1-PDC complex spheroids, viability % of control.
> 10 µM

Please state recorded IC50 (tested on 596521-263-R-J1-PDC complex spheroids, viability % of control) of Cc1cccc(N(C)C(=O)C2C(O)CCN2c2nc(C)cc(C(F)(F)F)c2C#N)c1 (stereo unspecified) + Cc1cnc(CNC(=O)c2c(=O)c3ccc(N4CCCN(C)CC4)nc3n3c2sc2ccccc23)cn1
> 10 µM

# query: IC50 | item COc1ncnc(C2CC2)c1-c1ncc2cnn(Cc3ccc(-c4nc(C(F)(F)F)cn4C(C)C)cc3)c2n1 + CN(C)c1ccc(Nc2c3ccc(NC(=O)CCN4CCCC4)cc3nc3cc(NC(=O)CCN4CCCC4)ccc23)cc1 | system: 596521-263-R-J1-PDC complex spheroids, viability % of control
> 10 µM

Fill in the recorded IC50 for this compound, with 596521-263-R-J1-PDC complex spheroids, viability % of control as test system: Cn1ncnc1[C@H]1c2n[nH]c(=O)c3cc(F)cc(c23)N[C@@H]1c1ccc(F)cc1 + Cc1[nH]c2ccc(F)cc2c1-c1nc2c3cccnc3c3ncccc3c2[nH]1
> 0.316 µM
